test system: MS2 coat protein; assay: apparent KD of MS2 coat protein; higher = weaker reporter binding; conditions: Eterna round: R107; input ligand: theophylline 20 uM
VALUE TYPE: apparent KD of MS2 coat protein (nM)
Give the quantity in nM, number only.

UGUAUGGACUGAAGGAGCGCCUCAAAAUAACUUGAGGAUCACCCAAGUAAGGCGAAAGCCGGGCAGGUAGGUCGCAGUCCAUACU [ArgBX 3]    28.1
CGGUACAUGAGGAUCACCCAUGUGUCGGAUACCAGAGAGCCGUCUCUCCCUUGGCAGCUGGUUUUACAUGAGGAUCACCCAUGUG [Exclusion Theophylline A GF20]    15.2
AUGUAGAACCGAAGGAGCGCGAUAACAUGAGGAUCACCCAUGUAGCUUUGGUGGCCUCGAUCGCAGGUAGGUCGCGGAAGUAGUA [Exclusion - Arginine B / A]    213
CUGUACAUCUCGGCCGCCACUGACAUGAGGAUCACCCAUGUAGUGCCGAUGAGAGACUUAUCGGCCAGGACCGGGAGGUGUGCAG [SSTryp B #32]    10.1
AAUAAGCAGCUGCCUUCCUCAUGAGCAGAUACCAGCUAGGAAACUAGCCCUUGGCAGCUGCAACAUGAGGAUCACCCAUGUAAUA [(T)'-(M)'-(T1)-(T2)-(M1)-(M2)_Design4]    81.2

// below: apparent KD of MS2 coat protein requested for another sequence
Query string: Item: AAUAAUAAGGCGGCCGCCACUAAACAUGAGGAUCACCCAUGUCUCGAGCGCUUGCAUUUGGGAAGUAGGACCGGGCCAAUAAUAA [Exclusion - Tryptophan B (Freestyle 4)] Test system: MS2 coat protein Read-out: apparent KD of MS2 coat protein Value: ?
Result string: 28.8

Source: the supplement of paper PMC9170038
